Quick reference for growth among some compounds
test system: A498 renal; assay: NCI-60 one-dose screen, 48 h (100 = growth as untreated, 0 = no growth, -100 = all killed); settings: 10 µM unless noted
This is part of a sample that, as a whole, favours compounds with a hit. Of some 83,000 tested, about 20% had one in any assay.
Write the answer as a number in %, unit excluded.

# annotated cases, reported growth shown
COc1cc([C@@H]2c3cc4c(cc3[C@H](OC3OC5COC(c6ccccc6)OC5C(O)C3O)[C@H]3COC(=O)[C@H]23)OCO4)cc(OC)c1OC (stereo partly specified) : 26.2
O=C1/C(=C/c2ccccn2)CCc2ccccc21 : 77.7
CN1CCC(CN2c3ccccc3Sc3ccccc32)C1 (stereo unspecified) : 109
CC12CCC(O)CC1=CCC1C2CCC2(C)C3=NN=CC3CC12 (stereo unspecified) : 124
O=C(CCl)N1c2ccccc2Sc2c1ccc1ccccc21 : 110
CCCCCCCCCCCCSC(=N)N : 80.8

Ask: Any idea what growth was measured for COC(=O)c1nc(=S)[nH]c(C(=O)OC)c1C(=O)c1ccc(Cl)c(Cl)c1 ?
Reply: 130

Ask: Also, Nc1cc(-c2ccccc2)ccc1O please.
Reply: 93

Ask: Also, Cc1ccccc1NC(=O)Cc1csc2[n+]1C(=O)/C(=C/c1ccc([N+](=O)[O-])cc1)S2 please.
Reply: 75

Ask: Also, CCc1oc2ccccc2c1C(=O)c1cc(Br)c(O)c(Br)c1 please.
Reply: 67.2

Ask: Also, CCCOS(=O)(=O)c1ccccc1 please.
Reply: 100
